Experimental details: Growth inhibition of human HUVEC cells assessed as reduction in cell number after 48 hrs by alamarBlue based fluorescence assay
Would you kindly list GI50 at 48 h for each of these compounds?

{"Compound": "COc1ccc(CC2COc3cc(OC)c(OC)c(OC)c3C2=O)cc1OC(=O)[C@H](CC(C)C)NC(=O)OC(C)(C)C (stereo partly specified)", "GI50 at 48 h": "> 100 µM"}
{"Compound": "COc1cc2c(c(OC)c1OC)C(=O)C(Cc1ccccc1)CO2 (stereo unspecified)", "GI50 at 48 h": "> 100 µM"}

# batch: return GI50 at 48 h for each of the 3 compounds below
1. COc1ccc(CC2COc3cc(OC)c(OC)c(OC)c3C2=O)cc1OCc1ccccc1 (stereo unspecified)
2. COc1ccc(CC2COc3cc(OC)c(OC)c(OC)c3C2=O)cc1OC(=O)/C=C/c1ccccc1 (stereo unspecified)
3. COc1ccc(CC2COc3cc(OC)c(OC)c(OC)c3C2=O)cc1OC(=O)[C@H](Cc1ccccc1)NC(=O)OCc1ccccc1 (stereo partly specified)

> 100 µM
> 100 µM
> 100 µM

So what's the measured GI50 at 48 h for this one? COc1ccc(CC2COc3cc(OC)c(OC)c(OC)c3C2=O)cc1OC(=O)[C@H](Cc1ccc(OCc2ccccc2)cc1)NC(=O)OC(C)(C)C (stereo partly specified)
> 100 µM

* * *

System: Y79
Experimental details: Growth inhibition of human Y79 cells assessed as reduction in cell number after 48 hrs by alamarBlue based fluorescence assay
Assay type: functional
Assay conditions: Y79, 48 h
Would you kindly list GI50 for each of these molecules?

Known results for molecules:
{"Molecule": "COc1ccc(CC2COc3cc(OC)c(OC)c(O)c3C2=O)cc1O (centres undefined)", "Recorded measurement": "> 100 µM"}
{"Molecule": "COc1ccc(CC2COc3cc(OC)c(OC)c(OC)c3C2=O)cc1OC(=O)[C@H](CC(C)C)NC(=O)OC(C)(C)C (some centres undefined)", "Recorded measurement": "> 100 µM"}
{"Molecule": "COc1ccc(CC2COc3cc(OC)c(OC)c(OC)c3C2=O)cc1OC(=O)[C@H](CCc1ccccc1)NC(=O)OC(C)(C)C (some centres undefined)", "Recorded measurement": "> 100 µM"}

Attention now turns to another entry.
So what's the measured GI50 for this one? COc1ccc(CC2COc3cc(OC)c(OC)c(OC)c3C2=O)cc1OC(=O)CCc1ccccc1 (centres undefined)
> 100 µM
